STUDY TARGET: HDM2 protein (Homo sapiens)
ASSAY TEXT: fluorescence polarization screening assay (FP IC50)
Assay type: binding
EXPERIMENTAL CONDITIONS: class symbols
pIC50: −log10 of the molar value.
ATTRIBUTE MEASURED: pIC50

Reference set, count: 10
* CCC[C@H]1N(C(=O)c2ncccc2C(F)(F)F)CCC[C@@]1(Oc1csc(C(F)(F)F)c1)C(=O)N1CCc2cc(F)ccc2C1CC(=O)O (stereo partly drawn) [Compound A52] | 7.00 to 9.00
* CCC[C@H]1N(C(=O)c2ncccc2C(F)(F)F)CCC[C@@]1(Oc1csc(C(F)(F)F)c1)C(=O)N1CCc2cc(F)ccc2C1CCC(=O)O (stereo partly drawn) [Compound A42] | 7.00 to 9.00
* CCC[C@H]1N(C(=O)c2ncccc2C(F)(F)F)CCC[C@@]1(Oc1csc(C(F)(F)F)c1)C(=O)N1CCc2cc(Cl)ccc2C1C(=O)O (stereo partly drawn) [Compound A100] | 7.00 to 9.00
* CCC[C@H]1N(C(=O)c2ncccc2C(F)(F)F)CCC[C@@]1(Oc1csc(C(F)(F)F)c1)C(=O)N1CCc2cc(Cl)ccc2C1CC(C(=O)O)C(C)C (stereo partly drawn) [Compound A178] | 7.00 to 9.00
* CCC[C@H]1N(C(=O)c2ncccc2C(F)(F)F)CCC[C@@]1(Oc1csc(C(F)(F)F)c1)C(=O)N1CCc2cc(C(N)=O)ccc2C1 [Compound A89] | 4.70 to 7.00
* CCC[C@H]1N(C(=O)c2ncccc2C(F)(F)F)CCC[C@@]1(Oc1csc(C(F)(F)F)c1)C(=O)N1CCc2cc(Cl)ccc2[C@H]1CCC(=O)NC#N [Compound A79] | 7.00 to 9.00
* CCC[C@H]1N(C(=O)c2ncccc2C(F)(F)F)CCC[C@@]1(Oc1csc(C(F)(F)F)c1)C(=O)N1CCc2sc(Cl)cc2C1C(=O)O (stereo partly drawn) [Compound A14] | 7.00 to 9.00
* CCC[C@H]1N(C(=O)c2ncccc2C(F)(F)F)CCC[C@@]1(Oc1csc(C(F)(F)F)c1)C(=O)N1CCc2cc(Cl)ccc2C1CC(=O)N1CCC(O)CC1 (stereo partly drawn) [Compound A85] | 7.00 to 9.00
* CCC[C@H]1N(C(=O)c2ncccc2C(F)(F)F)CCC[C@@]1(Oc1csc(C(F)(F)F)c1)C(=O)N1CCc2cc(OC)ccc2C1 [Compound A47] | 4.70 to 7.00
* C=CC[C@H]1N(C(=O)c2ncccc2C(F)(F)F)CCC[C@@]1(Oc1csc(C(F)(F)F)c1)C(=O)N1CCc2cc(Cl)ccc2C1C(=O)O (stereo partly drawn) [Compound A113] | 7.00 to 9.00

Working through the 2 molecules below one at a time, give pIC50 for each.
1. CCC[C@H]1N(C(=O)c2ncccc2C(F)(F)F)CCC[C@@]1(Oc1csc(C(F)(F)F)c1)C(=O)N1CCc2cc(Cl)ccc2C1CO (stereo partly drawn) [Compound A105]
2. CCC[C@H]1N(C(=O)c2ncccc2C(F)(F)F)CCC[C@@]1(Oc1csc(C(F)(F)F)c1)C(=O)N1Cc2sccc2CC1C(=O)O (stereo partly drawn) [Compound A173]

Result:
1. 4.70 to 7.00
2. 4.70 to 7.00

---

Exercise: for every item that follows, state its recorded pIC50.
STUDY TARGET: HDM2 protein (Homo sapiens, UniProt Q00987)
Sequence (Q00987 whole entry): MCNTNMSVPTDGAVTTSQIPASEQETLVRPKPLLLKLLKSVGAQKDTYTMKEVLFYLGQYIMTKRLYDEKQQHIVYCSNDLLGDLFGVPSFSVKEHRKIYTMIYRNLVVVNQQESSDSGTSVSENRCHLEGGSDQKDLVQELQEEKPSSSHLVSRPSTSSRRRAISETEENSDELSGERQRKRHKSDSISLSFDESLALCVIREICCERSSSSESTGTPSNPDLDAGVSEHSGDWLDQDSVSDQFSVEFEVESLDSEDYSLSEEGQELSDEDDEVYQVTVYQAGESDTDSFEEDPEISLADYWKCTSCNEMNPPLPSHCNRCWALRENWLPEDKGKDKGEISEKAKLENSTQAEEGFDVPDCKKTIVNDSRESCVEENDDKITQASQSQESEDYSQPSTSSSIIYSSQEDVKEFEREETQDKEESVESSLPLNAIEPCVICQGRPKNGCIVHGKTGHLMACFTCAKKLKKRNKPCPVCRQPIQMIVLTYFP
ASSAY TEXT: fluorescence polarization screening assay (FP IC50)
Type: binding
EXPERIMENTAL CONDITIONS: class symbols
pIC50: −log10 of the molar value.

Reference set, count: 5
- CCC[C@H]1N(C(=O)c2ncccc2C(F)(F)F)CCC[C@@]1(Oc1csc(C(F)(F)F)c1)C(=O)N1Cc2ccc(Cl)cc2C[C@@H]1C(=O)N1CCC(OC)CC1 [Compound A169]: 7.00 to 9.00
- CCC[C@H]1N(C(=O)c2ncccc2C(F)(F)F)CCC[C@@]1(Oc1csc(C(F)(F)F)c1)C(=O)N1CCc2ccsc2C1CC(C)(C)C(=O)O (some centres unmarked) [Compound A29]: 7.00 to 9.00
- CCC[C@H]1N(C(=O)c2ncccc2C(F)(F)F)CCC[C@@]1(Oc1csc(C(F)(F)F)c1)C(=O)N1CCc2ccc(F)cc2C1 [Compound A138]: 4.70 to 7.00
- O=C(c1cnccc1C(F)(F)F)N1CCC[C@@](Oc2csc(C(F)(F)F)c2)(C(=O)N2CCc3cc(Cl)ccc3C2)[C@H]1CCN1CCOCC1 [Compound A4]: 7.00 to 9.00
- CCC[C@H]1N(C(=O)c2ncccc2C(F)(F)F)CCC[C@@]1(Oc1csc(C(F)(F)F)c1)C(=O)N1CCc2cc(Cl)ccc2C1CC(=O)N1CCC(O)CC1 (some centres unmarked) [Compound A82]: 7.00 to 9.00

Working through the 4 compounds below one at a time, give pIC50 for each.
1. CCC[C@H]1N(C(=O)c2ncccc2C(F)(F)F)CCC[C@@]1(Oc1csc(C(F)(F)F)c1)C(=O)N1CCc2ccc(Cl)cc2C1 [Compound A139]
2. CCC[C@H]1N(C(=O)c2ncccc2C(F)(F)F)CCC[C@@]1(Oc1csc(C(F)(F)F)c1)C(=O)N1Cc2ccc(F)cc2C[C@@H]1CCCC(=O)O [Compound A146]
3. NC(=O)C1c2ccc(Cl)cc2CCN1C(=O)[C@]1(Oc2csc(C(F)(F)F)c2)CCCN(C(=O)c2ncccc2C(F)(F)F)[C@@H]1CC(=O)O (some centres unmarked) [Compound A95]
4. CCC[C@H]1N(C(=O)c2ncccc2C(F)(F)F)CCC[C@@]1(Oc1csc(C(F)(F)F)c1)C(=O)N1Cc2ccc(Cl)cc2C[C@@H]1CCC(=O)NS(C)(=O)=O [Compound A148]

Result:
1. 4.70 to 7.00
2. 7.00 to 9.00
3. 7.00 to 9.00
4. 7.00 to 9.00

---

STUDY TARGET: HDM2 protein (Homo sapiens, UniProt Q00987)
ASSAY TEXT: fluorescence polarization screening assay (FP IC50)
Type: binding
EXPERIMENTAL CONDITIONS: class symbols
ATTRIBUTE MEASURED: IC50

Reference set, count: 5
• CCC[C@H]1N(C(=O)c2ncccc2C(F)(F)F)CCC[C@@]1(Oc1csc(C(F)(F)F)c1)C(=O)N1CCc2cc(F)ccc2C1C(=O)O (stereo partly drawn) [Compound A104] = 1 to 100 nM
• CCC[C@H]1N(C(=O)c2ncccc2C(F)(F)F)CCC[C@@]1(Oc1csc(C(F)(F)F)c1)C(=O)N1CCc2cc(F)ccc2C1CCCCC(=O)O (stereo partly drawn) [Compound A43] = 1 to 100 nM
• CCC[C@H]1N(C(=O)c2ncccc2C(F)(F)F)CCC[C@@]1(Oc1csc(C(F)(F)F)c1)C(=O)N1Cc2sccc2CC1C(=O)O (stereo partly drawn) [Compound A171] = 101 to 20000 nM
• O=C(c1ncccc1C(F)(F)F)N1CCC[C@@](Oc2csc(C(F)(F)F)c2)(C(=O)N2CCc3cc(Cl)ccc3C2)[C@H]1CCN1CCN(CC2CC2)CC1 = 1 to 100 nM
• CCC[C@H]1N(C(=O)c2ncccc2C(F)(F)F)CCC[C@@]1(Oc1csc(C(F)(F)F)c1)C(=O)N1CCc2sc(Cl)cc2C1CCC(N)=O (stereo partly drawn) = 101 to 20000 nM

Let's switch to this compound now.
Entry under test: `O=C(c1ncccc1C(F)(F)F)N1CCC[C@@](Oc2csc(C(F)(F)F)c2)(C(=O)N2CCc3cc(Cl)ccc3C2)[C@H]1CCNC1CCOCC1` . Its IC50 was 1 to 100 nM

---

Exercise: for every item that follows, state its recorded pIC50.
STUDY TARGET: HDM2 protein (Homo sapiens)
ASSAY TEXT: fluorescence polarization screening assay (FP IC50)
Type: binding
EXPERIMENTAL CONDITIONS: class symbols
pIC50: −log10 of the molar value.

Reference set, count: 2
• CCC[C@H]1N(C(=O)c2ncccc2C(F)(F)F)CCC[C@@]1(Oc1csc(C(F)(F)F)c1)C(=O)N1CCc2cc(Cl)ccc2C1CN1CCOCC1 (stereo partly drawn) = 7.00 to 9.00
• COCC1c2ccc(Cl)cc2CCN1C(=O)[C@]1(Oc2csc(C(F)(F)F)c2)CCCN(C(=O)c2ncccc2C(F)(F)F)[C@@H]1CCN1CCCC1 (stereo partly drawn) = 7.00 to 9.00

Let's switch to this molecule now.
Entry under test: `CCC[C@H]1N(C(=O)c2ncccc2C(F)(F)F)CCC[C@@]1(Oc1csc(C(F)(F)F)c1)C(=O)N1CCc2cc(C#N)ccc2C1` . Its pIC50 was 4.70 to 7.00

---

STUDY TARGET: HDM2 protein (Homo sapiens, UniProt Q00987)
ASSAY TEXT: fluorescence polarization screening assay (FP IC50)
Assay type: binding
EXPERIMENTAL CONDITIONS: numeric value
ATTRIBUTE MEASURED: IC50 (µM)
Give bare numbers, in µM.

IC50 value, target or system HDM2 protein (Homo sapiens, UniProt Q00987), for COCCN(CCOC)CC[C@H]1N(C(=O)c2cnccc2C(F)(F)F)CCC[C@@]1(Oc1csc(C(F)(F)F)c1)C(=O)N1CCc2ccc(Cl)cc2C1 [Compound A1] : 472
